Reported pIC50 values, Dihydrofolate reductase (Rattus norvegicus).
Formally, pIC50 is defined as -log10 of the concentration c, with c in mol/L.

*Q* Form entry - test system: Dihydrofolate reductase (Rattus norvegicus); read-out: pIC50; compound: COc1cc(N2C=Cc3c(cnc4nc(N)nc(N)c34)C2)cc(OC)c1OC
Sequence (Q920D2 whole entry): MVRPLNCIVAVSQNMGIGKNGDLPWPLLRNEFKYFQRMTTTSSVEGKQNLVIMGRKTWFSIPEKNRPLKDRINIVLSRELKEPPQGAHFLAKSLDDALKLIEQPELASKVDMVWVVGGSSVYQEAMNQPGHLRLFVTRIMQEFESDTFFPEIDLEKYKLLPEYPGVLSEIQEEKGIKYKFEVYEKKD
*A* 6.33

*Q* And for COc1cc(-n2ccc3c4c(N)nc(N)nc4nc(=O)c-3c2)cc(OC)c1OC ?
*A* 7.07

*Q* For COc1cc(N2C=C3C(=O)N=c4nc(N)nc(N)c4=C3CC2)cc(OC)c1OC then?
*A* 6.62

*Q* Quick one: COc1cc(N2CCC3c4c(N)nc(N)nc4NCC3C2)cc(OC)c1OC (stereo unspecified)
*A* 6.80
